The measurements presented in this section are drawn from ChEMBL document CHEMBL2086251.

EXPERIMENTAL_PROTOCOL: Cytotoxicity against mock-infected human MT4 cells by MTT assay
Format: cell-based
// thresholds for CC50 classes: category 1 = under 6 µM, category 2 = from 6 µM up to 30 µM, category 3 = 30 µM and over

Example entries begin here.
>>> print(df.to_string())
                      smiles_representation       label
0  Cc1cc(C)c(-n2c(SCC(=O)Nc3ccc(Cl)cc3Cl)nc3cccnc32)c(C)c1  category 1
1  Cc1cc(C)c(-n2c(SCC(=O)Nc3ccccc3)nc3cnccc32)c(C)c1  category 2
2  Cc1cc(C)c(-n2c(SCC(=O)Nc3ccccc3F)nc3cccnc32)c(C)c1  category 1
3  Cc1cc(C)c(-n2c(SCC(=O)Nc3ncc(C)cc3Br)nc3cccnc32)c(C)c1  category 3
4  Cc1cc(C)c(-n2c(SCC(=O)Nc3ccccc3Cl)nc3cccnc32)c(C)c1  category 1
5  COC(=O)c1ccc(NC(=O)CSc2nc3cnccc3n2-c2c(C)cc(C)cc2C)c(Br)c1  category 2
6  Cc1cc(C)c(-n2c(SCC(=O)Nc3ccccc3Br)nc3cnccc32)c(C)c1  category 2
7  Cc1cc(C)c(-n2c(SCC(=O)Nc3cccnc3Cl)nc3cnccc32)c(C)c1  category 2

Could you tell me which band "Cc1cc(C)c(-n2c(SCC(=O)Nc3ccc([N+](=O)[O-])cc3Cl)nc3cccnc32)c(C)c1" belongs to?
category 2

Could you place "Cc1cc(C)c(-n2c(SCC(=O)Nc3ccccc3Cl)nc3cnccc32)c(C)c1" in its proper category? Many thanks.
category 2

In plain terms, what class is "Cc1cc(C)c(-n2c(SCC(=O)Nc3ccc([N+](=O)[O-])cc3Cl)nc3cnccc32)c(C)c1" ?
category 2

Kindly state the category for this molecule: "Cc1cc(C)c(-n2c(SCC(=O)Nc3ccc(C)cc3[N+](=O)[O-])nc3cnccc32)c(C)c1"
category 2

Consider "Cc1cc(C)c(-n2c(SCC(=O)Nc3ccccc3F)nc3cnccc32)c(C)c1" . To which CC50 class does it belong?
category 2

Input "COC(=O)c1ccc(NC(=O)CSc2nc3cccnc3n2-c2c(C)cc(C)cc2C)c(Br)c1" ; output its category
category 3

// return the class label for "Cc1cc(C)c(-n2c(SCC(=O)Nc3ncc(C)cc3Br)nc3cnccc32)c(C)c1"
category 3

Which category does the recorded CC50 put "Cc1cc(C)c(-n2c(SCC(=O)Nc3ccccc3)nc3cccnc32)c(C)c1" in?
category 2
